# credit: ChEMBL document CHEMBL1135402

target: 5-hydroxytryptamine receptor 2A (Rattus norvegicus)
So basically, if Ki comes in under 200 nM it's Yes, and if it's 200 nM or more it's No.

| compound | cat |
| --- | --- |
| O=C(c1ccc(F)cc1)C1CCN(CCC2CCc3occc3C2=O)CC1 (stereo not drawn) | Yes |
| COc1ccccc1N1CCN(CC2CC(=O)c3ccoc3C2)CC1 (stereo not drawn) | No |
| COc1ccccc1N1CCN(CCC2CCc3occc3C2=O)CC1 (stereo not drawn) | Yes |
| CCc1c(C)[nH]c2c1C(=O)CC(CN1CCC(c3noc4cc(F)ccc34)CC1)C2 (stereo not drawn) | Yes |
| O=C1CC(CN2CCN(c3ccccn3)CC2)c2ccccc21 (stereo not drawn) | No |
| O=C1c2ccsc2CCC1CCN1CCN(c2ccccn2)CC1 (stereo not drawn) | Yes |
| O=C1CC(CN2CCN(c3ncccn3)CC2)Cc2occc21 (stereo not drawn) | No |

Attention now shifts to the item below.
[in] Decide: Ki of O=C1c2ccoc2CCC1CCN1CCN(c2ccccn2)CC1 (stereo not drawn) strictly below 200 nM?
[out] No

----------
Exercise: state measured Kb for each of the compounds provided.
target: 5-hydroxytryptamine receptor 2A (Rattus norvegicus, UniProt P14842); test: Negative log concentration of antagonist on 5-hydroxytryptamine 2A receptor in rat thoracic aorta; format: functional, tissue-based; details: read-out: pA2 (converted)
Sequence (P14842 whole entry): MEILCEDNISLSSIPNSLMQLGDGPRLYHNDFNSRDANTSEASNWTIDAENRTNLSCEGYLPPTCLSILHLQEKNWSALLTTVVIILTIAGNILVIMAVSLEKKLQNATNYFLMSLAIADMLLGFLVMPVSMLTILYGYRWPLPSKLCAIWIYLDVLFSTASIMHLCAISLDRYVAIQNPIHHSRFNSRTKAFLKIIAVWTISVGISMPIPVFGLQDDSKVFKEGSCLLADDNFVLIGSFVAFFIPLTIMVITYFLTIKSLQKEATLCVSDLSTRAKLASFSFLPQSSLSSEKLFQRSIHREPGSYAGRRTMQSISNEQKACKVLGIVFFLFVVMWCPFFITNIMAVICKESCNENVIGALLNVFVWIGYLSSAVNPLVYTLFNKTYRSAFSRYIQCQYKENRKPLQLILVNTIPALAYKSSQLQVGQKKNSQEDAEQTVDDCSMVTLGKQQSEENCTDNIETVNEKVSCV
Numbers only, in nM.

Below, each entry is followed by its recorded Kb result.
| compound | Kb / nM |
| --- | --- |
| COc1ccccc1N1CCN(CC2CC(=O)c3ccccc32)CC1 (stereo unspecified) | 617 |
| O=C(CCCN1CCN(CC2CC(=O)c3ccsc3C2)CC1)c1ccc(F)cc1 (stereo unspecified) | 16.2 |
| O=C(c1ccc(F)cc1)C1CCN(CCC2Cc3ccccc3C2=O)CC1 (stereo unspecified) | 7.59 |
| COc1ccccc1N1CCN(CCC2CCc3occc3C2=O)CC1 (stereo unspecified) | 501 |
| O=C(c1ccc(F)cc1)C1CCN(CCC2Cc3cc(F)ccc3C2=O)CC1 (stereo unspecified) | 7.59 |

Look at each compound and report its Kb.
1. O=C(CCCN1CCN(CC2CC(=O)c3ccccc32)CC1)c1ccc(F)cc1 (stereo unspecified)
2. O=C1c2ccsc2CCC1CCN1CCC(c2noc3cc(F)ccc23)CC1 (stereo unspecified)
3. O=C1CC(CN2CCC(C(=O)c3ccc(F)cc3)CC2)c2ccccc21 (stereo unspecified)
4. O=C1CC(CN2CCC(C(=O)c3ccc(F)cc3)CC2)Cc2occc21 (stereo unspecified)
5. O=C(CCCN1CCN(CCC2Cc3ccccc3C2=O)CC1)c1ccc(F)cc1 (stereo unspecified)
6. O=C(c1ccc(F)cc1)C1CCN(CCC2Cc3sccc3C2=O)CC1 (stereo unspecified)
7. O=C(c1ccc(F)cc1)C1CCN(CCC2CCc3ccccc3C2=O)CC1 (stereo unspecified)

[out]
63.1
0.135
7.41
52.5
50.1
1.2
33.9

Look at each compound and report its Kb.
1. O=C(c1ccc(F)cc1)C1CCN(CCC2CCc3sccc3C2=O)CC1 (stereo unspecified)
2. O=C1CC(CN2CCC(C(=O)c3ccc(F)cc3)CC2)Cc2sccc21 (stereo unspecified)
3. O=C1CC(CN2CCC(c3noc4cc(F)ccc34)CC2)Cc2occc21 (stereo unspecified)
4. COc1ccccc1N1CCN(CCC2Cc3ccccc3C2=O)CC1 (stereo unspecified)

[out]
1. 0.955
2. 15.1
3. 11.2
4. 158

Look at each compound and report its Kb.
1. O=C1CC(CN2CCC(C(=O)c3ccc(F)cc3)CC2)Cc2ccccc21 (stereo unspecified)
2. O=C(CCCN1CCN(CCC2CCc3ccccc3C2=O)CC1)c1ccc(F)cc1 (stereo unspecified)
3. COc1ccccc1N1CCN(CC2CC(=O)c3ccsc3C2)CC1 (stereo unspecified)
4. O=C1c2ccsc2CCC1CCN1CCN(c2ccccn2)CC1 (stereo unspecified)
5. COc1ccccc1N1CCN(CCC2CCc3sccc3C2=O)CC1 (stereo unspecified)

[out]
1: 13.8; 2: 44.7; 3: 1260; 4: 490; 5: 112

Look at each compound and report its Kb.
1. O=C1c2ccoc2CCC1CCN1CCC(c2noc3cc(F)ccc23)CC1 (stereo unspecified)
2. COc1ccccc1N1CCN(CC2CC(=O)c3ccccc3C2)CC1 (stereo unspecified)
3. O=C(c1ccc(F)cc1)C1CCN(CCC2CCc3occc3C2=O)CC1 (stereo unspecified)
4. O=C(CCCN1CCN(CCC2CCc3sccc3C2=O)CC1)c1ccc(F)cc1 (stereo unspecified)
5. O=C1c2ccoc2CCC1CCN1CCN(c2ccccn2)CC1 (stereo unspecified)

[out]
1. 0.562
2. 331
3. 26.3
4. 148
5. 676

Look at each compound and report its Kb.
1. COc1ccccc1N1CCN(CCC2CCc3ccccc3C2=O)CC1 (stereo unspecified)
2. O=C(CCCN1CCN(CCC2Cc3sccc3C2=O)CC1)c1ccc(F)cc1 (stereo unspecified)
3. O=C1CC(CN2CCC(c3noc4cc(F)ccc34)CC2)Cc2sccc21 (racemic)
4. O=C(CCCN1CCN(CC2CC(=O)c3ccccc3C2)CC1)c1ccc(F)cc1 (stereo unspecified)
5. O=C(c1ccc(F)cc1)C1CCN(CCC2CCCc3ccccc3C2=O)CC1 (stereo unspecified)

[out]
1. 191
2. 23.4
3. 0.741
4. 53.7
5. 178

----------
target: 5-hydroxytryptamine receptor 2A (Homo sapiens); assay: Inhibitory constant for human 5-hydroxytryptamine 2A receptor transfected in to CHO cells
Sequence (P28223 whole entry): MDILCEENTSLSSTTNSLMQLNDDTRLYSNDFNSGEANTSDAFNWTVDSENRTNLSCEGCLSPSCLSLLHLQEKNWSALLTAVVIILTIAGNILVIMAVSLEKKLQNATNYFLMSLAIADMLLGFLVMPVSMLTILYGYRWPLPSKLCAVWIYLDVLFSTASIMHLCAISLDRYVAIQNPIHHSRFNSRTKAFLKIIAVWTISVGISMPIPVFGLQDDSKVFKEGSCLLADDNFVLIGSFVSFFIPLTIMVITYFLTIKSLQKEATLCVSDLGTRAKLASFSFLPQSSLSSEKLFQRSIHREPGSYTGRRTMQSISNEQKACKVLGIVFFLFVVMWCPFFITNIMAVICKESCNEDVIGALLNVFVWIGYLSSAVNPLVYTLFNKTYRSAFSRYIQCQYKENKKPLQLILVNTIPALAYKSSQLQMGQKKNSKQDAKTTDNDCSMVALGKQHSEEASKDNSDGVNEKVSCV
readout.type: pKi
Numbers only, as −log10 of the molar value.

| compound | readout.type | measurement |
| --- | --- | --- |
| O=C(CCCN1CCN(CC2CC(=O)c3ccccc3C2)CC1)c1ccc(F)cc1 (centres undefined) | pKi | 6.94 |
| O=C1c2ccoc2CCC1CCN1CCC(c2noc3cc(F)ccc23)CC1 (centres undefined) | pKi | 9.14 |

Look at each compound and report its pKi.
1. O=C(CCCN1CCN(CCC2Cc3ccccc3C2=O)CC1)c1ccc(F)cc1 (centres undefined)
2. O=C1CC(CN2CCC(c3noc4cc(F)ccc34)CC2)Cc2[nH]c3ccccc3c21 (centres undefined)

[out]
1. 7.17
2. 8.93

----------
target: Serotonin receptor 2a and 2c (5HT2A and 5HT2C) (Rattus norvegicus) (UniProt P08909+P14842); test: Selectivity ratio towards Ki of 5-hydroxytryptamine 2A receptor to 5-hydroxytryptamine 2C receptor; format: protein assay
Sequence (P08909 whole entry, looked up): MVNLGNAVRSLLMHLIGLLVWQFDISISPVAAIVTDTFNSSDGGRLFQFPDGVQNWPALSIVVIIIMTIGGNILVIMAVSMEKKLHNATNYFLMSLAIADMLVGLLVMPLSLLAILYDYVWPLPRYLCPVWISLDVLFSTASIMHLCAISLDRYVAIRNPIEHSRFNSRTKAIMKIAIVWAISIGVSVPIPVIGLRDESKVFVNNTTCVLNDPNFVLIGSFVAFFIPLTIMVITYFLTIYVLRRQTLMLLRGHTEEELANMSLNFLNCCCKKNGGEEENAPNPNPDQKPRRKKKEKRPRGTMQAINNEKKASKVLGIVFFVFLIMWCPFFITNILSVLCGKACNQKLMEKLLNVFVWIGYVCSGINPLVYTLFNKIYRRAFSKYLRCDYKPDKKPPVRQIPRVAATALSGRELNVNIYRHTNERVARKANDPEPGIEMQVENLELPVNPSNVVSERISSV
Sequence (P14842 whole entry, looked up): as the sequence (P14842 whole entry) above
Grouping rule (Ratio): lo: < 6; mid: ≥ 6 and < 40; hi: ≥ 40

// known answers, use as guide
| compound | cat |
| --- | --- |
| O=C(CCCN1CCN(CCC2Cc3cc(F)ccc3C2=O)CC1)c1ccc(F)cc1 (configuration not stated) | mid |
| COc1ccccc1N1CCN(CC2CC(=O)c3ccccc3C2)CC1 (configuration not stated) | lo |
| O=C(c1ccc(F)cc1)C1CCN(CCC2CCc3ccsc3C2=O)CC1 (configuration not stated) | mid |
| O=C(CCCCN1CCN(CC2CC(=O)c3ccoc3C2)CC1)c1ccc(F)cc1 (configuration not stated) | mid |
| COc1ccccc1N1CCN(CCC2CCc3occc3C2=O)CC1 (configuration not stated) | lo |
| O=C(c1ccc(F)cc1)C1CCN(CCC2CCc3occc3C2=O)CC1 (configuration not stated) | mid |
| CCc1c(C)[nH]c2c1C(=O)CC(CN1CCN(c3ccccc3OC)CC1)C2 (configuration not stated) | mid |
| O=C(c1ccc(F)cc1)C1CCN(CCC2Cc3cc(F)ccc3C2=O)CC1 (configuration not stated) | hi |
| O=C1c2ccoc2CCC1CCN1CCN(c2ccccn2)CC1 (configuration not stated) | hi |
| O=C1c2ccsc2CCC1CCN1CCN(c2ccccn2)CC1 (configuration not stated) | mid |

[in] GET /class?item= O=C1CC(CN2CCC(c3noc4cc(F)ccc34)CC2)Cc2occc21 (configuration not stated)
[out] hi

[in] GET /class?item= COc1ccccc1N1CCN(CCC2Cc3ccccc3C2=O)CC1 (configuration not stated)
[out] lo

[in] GET /class?item= O=C(CCCN1CCN(CC2CC(=O)c3ccoc3C2)CC1)c1ccc(F)cc1 (configuration not stated)
[out] mid

[in] GET /class?item= O=C(CCCN1CCN(CC2CC(=O)c3ccccc3C2)CC1)c1ccc(F)cc1 (configuration not stated)
[out] hi

[in] GET /class?item= O=C1CC(CN2CCC(C(=O)c3ccc(F)cc3)CC2)Cc2[nH]c3ccccc3c21 (configuration not stated)
[out] hi

[in] GET /class?item= O=C1c2sccc2CCC1CCN1CCC(c2noc3cc(F)ccc23)CC1 (configuration not stated)
[out] mid

----------
molecular target: Serotonin receptor 2a and 2c (5HT2A and 5HT2C) (Rattus norvegicus) (UniProt P08909+P14842); assay: Selectivity ratio towards Ki of 5-hydroxytryptamine 2A receptor to 5-hydroxytryptamine 2C receptor; format: protein assay
Classify as follows. Reported Ratio greater than or equal to 50: yes. Reported Ratio below: no.

// known answers, use as guide
| molecule | study.target | cat |
| --- | --- | --- |
| COc1ccccc1N1CCN(CC2CC(=O)c3ccoc3C2)CC1 (stereo unspecified) | Serotonin receptor 2a and 2c (5HT2A and 5HT2C) (Rattus norvegicus) (UniProt P08909+P14842) | no |
| COc1ccccc1N1CCN(CC2CC(=O)c3c([nH]c4ccccc34)C2)CC1 (stereo unspecified) | Serotonin receptor 2a and 2c (5HT2A and 5HT2C) (Rattus norvegicus) (UniProt P08909+P14842) | no |
| O=C(c1ccc(F)cc1)C1CCN(CCC2CCc3ccccc3C2=O)CC1 (stereo unspecified) | Serotonin receptor 2a and 2c (5HT2A and 5HT2C) (Rattus norvegicus) (UniProt P08909+P14842) | no |
| O=C1CC(CN2CCN(c3ccccc3)CC2)Cc2occc21 (stereo unspecified) | Serotonin receptor 2a and 2c (5HT2A and 5HT2C) (Rattus norvegicus) (UniProt P08909+P14842) | yes |

[in] Check the entry CCc1c(C)[nH]c2c1C(=O)CC(CN1CCC(c3noc4cc(F)ccc34)CC1)C2 (stereo unspecified) : does Ratio equal or exceed 50?
[out] yes
